Values from PubChem BioAssay AID1381

- experiment-notes: inhibitors of GR-EGFP nuclear translocation, primary screen, dynein cargo transport inhibitor project, imaging, high-content, 3617.4 mouse cells (AID 1381)
- assay-context: measured here: cell count per field, at 20 µM, stimulated with dexamethasone, 1 µM
The campaign covered roughly 220,000 compounds. About 1,000 (0.45%) were called active. Many of the other results were omitted from the sample, so actives are more common in it than they were.
Tag: True if measured z-score is not below 0.5, False if it is.

Assess whether reported z-score for `O=c1[nH]c(N2CCN(Cc3ccc4c(c3)OCO4)CC2)nc2c1CCCC2` sits at 0.5 or higher.
True

More entries:
Confirm if z-score reported for the molecule `CCN(CC)c1ccc2cc(C(=O)O)c(=O)oc2c1` is 0.5 or above.
False

Check the entry Cc1ccc(C(C)NC(=O)Cn2nc(C)c([N+](=O)[O-])c2C)cc1 (stereo unspecified) : does z-score equal or exceed 0.5?
True

Decide: z-score of `C/C(=N\NC(=O)CSc1nc2ccccc2c(=O)n1-c1ccccc1C)c1cccs1` >= 0.5?
False

* * *

- experiment-notes: inhibitors of GR-EGFP nuclear translocation, primary screen, dynein cargo transport inhibitor project, imaging, high-content, 3617.4 mouse cells (AID 1381)
- assay-context: measured here: nuclear GR-EGFP intensity, at 20 µM, stronger effect = lower value, stimulated with dexamethasone, 1 µM
Hit rate of the full screen: of about 220,000 compounds, about 1,000 (0.45%) were called active. Only a selection was taken, and actives are over-represented in it overall.
Please note: z-score exactly at 0.3 is FALSE. Only values below 0.3 get TRUE.

Previously resolved entries follow.
Is the reported z-score for `O=Cc1cn(Cc2ccccc2)nc1-c1cccnc1` strictly below 0.3?
TRUE

Hello, is z-score of the following compound strictly smaller than 0.3? `COC(=O)c1cc(C(=O)N(Cc2ccccc2)c2ccccn2)cc([N+](=O)[O-])c1`
TRUE

A record lists `COc1cc(/C=N\NC(=O)CNC(=O)c2cccc([N+](=O)[O-])c2)ccc1O` . Is its z-score below 0.3?
FALSE

Is the reported z-score for `COc1ccc(C(=O)NCC(=O)N/N=C/c2ccc([N+](=O)[O-])s2)cc1OC` strictly below 0.3?
TRUE

# strict comparison: is reported z-score < 0.3? input = `O=C(CSc1nnc(-c2cccnc2)n1Cc1ccco1)c1ccc(Cl)cc1`
TRUE

I'd appreciate it if you could check whether O=C(CSc1ccccc1F)NC1CCS(=O)(=O)C1 (stereo unspecified) has z-score smaller than 0.3.
TRUE

Please indicate whether the reported z-score of `Clc1cccc(-c2nc3nc4ccccc4nc3n2Cc2ccco2)c1` is strictly below 0.3.
TRUE

hey, is z-score for O=C1c2ccccc2NC(c2ccccn2)N1NS(=O)(=O)c1ccccc1 (stereo unspecified) lower than 0.3 or not?
TRUE

***
Confirm or reject: z-score of `Cc1c(C(=O)Nc2ccccc2)sc2nc3n(c(=O)c12)CCCCC3` lies strictly below 0.3
TRUE

z-score under 0.3? Item: `C=CCn1cc(C(=O)NCc2ccc(Cl)cc2)c(=O)c2cc(S(=O)(=O)N(CC)CC)ccc21`
FALSE

Determine if O=C(NCc1ccc(F)cc1)C(c1ccccc1)N(C(=O)c1csnn1)C1CC1 (stereo unspecified) shows z-score strictly lower than 0.3.
FALSE

Is it true that z-score reported for `CC1(C)COC(c2cccn2Cc2ccccc2Cl)=N1` is less than 0.3?
FALSE

Regarding `COc1ccc(-c2csc3nc(-c4ccccc4F)oc(=O)c23)cc1OC` , kindly confirm whether its z-score is beneath 0.3.
TRUE

Given `COc1ccc(C(=O)NCC(=O)N/N=C/c2ccc([N+](=O)[O-])o2)cc1OC` , is recorded z-score strictly lower than 0.3?
TRUE

Determine whether this compound shows z-score lower than 0.3 (ties excluded): COc1ccc(NC(=O)/C(Cl)=C(/Cl)S(=O)Cc2ccc(C)cc2)cn1 (stereo unspecified)
TRUE

API: query returns whether the compound falls strictly under 0.3 in z-score. Query: `Cc1ccc(Cn2c(NC(=O)c3ccco3)nc3ccccc32)cc1`
FALSE

* * *

- experiment-notes: inhibitors of GR-EGFP nuclear translocation, primary screen, dynein cargo transport inhibitor project, imaging, high-content, 3617.4 mouse cells (AID 1381)
- assay-context: at 20 µM, stronger effect = lower value, stimulated with dexamethasone, 1 µM
In all, about 220,000 compounds went through this assay and about 1,000 (0.45%) were called active. This is one part of a sample in which actives are shown more often than they occur.
Field: z-score. Provide a value for each of the compounds that follow.
Answers are plain numbers.

Here is how some compounds turned out for z-score.
Give its z-score value. Item: `COc1ccc(-c2noc(-c3cccc(OC)c3OC)n2)cc1OC`
1.03

So what does the record say about z-score for `CC1CCN(C(=O)c2ccc(CSc3ccc(Cl)cc3)cc2)CC1` ?
-0.555

z-score lookup needed for `O=C(Nc1ccccc1)OCc1cc(-c2ccc(Cl)cc2)on1` , thanks.
1.93

Request the reported z-score associated with `CCCc1nc2oc3c(=O)[nH]cnc3c2c2c1COC(C)(C)C2`
-0.456

What measured z-score goes with `O=S1(=O)CC/C(=N\Nc2ccc(F)cc2)c2ccsc21` ?
-0.204

Batch request: z-score per item, same order as input.
1. CC(C)CNc1ncnc2c1cnn2Cc1ccc(Cl)cc1
2. COc1ccc(-c2csc3nc(-c4ccccc4F)oc(=O)c23)cc1OC
3. O=C1c2ccccc2C(=O)N1Cc1cc(-c2ccccc2Cl)no1
4. CC(=O)Cn1ncc(N2CCOCC2)c(Br)c1=O
5. Cc1ccnc(N2CCN(C(=O)CSc3nc4ccccc4nc3N3CCCCC3)CC2)c1
6. CN1CCN(C(=O)/C(=C\c2cccs2)NC(=O)c2cccs2)CC1

1. -0.416
2. -3.75
3. -0.0385
4. 1.61
5. -1.05
6. -0.757

For every listed record, write down its z-score.
1. O=C(NNS(=O)(=O)Cc1ccccc1)c1ccc([N+](=O)[O-])cc1
2. Nc1ncnc(Nc2cccc(Cl)c2Cl)n1
3. O=C(/C=C/c1ccccc1)c1ccccc1O

-0.775
-1.6
-0.596

Please supply z-score for each of the following items, keeping them in order.
1. Cc1ccc(S(=O)(=O)N(C)c2ccc(OCC(=O)NC3=NCCS3)cc2)cc1
2. O=C(Nc1ccc(F)cc1)C1CCN(C(=O)c2ccc([N+](=O)[O-])cc2)CC1
3. Cc1ccc(Cl)cc1N1CCN(C(=O)c2cccc3c(=O)c(C)c(-c4ccccc4)oc23)CC1
4. O=Cc1ccc(Oc2cccc(C(F)(F)F)c2)nc1
5. CC1(C)CCSC(/C=C/c2ccccc2)=N1
6. CC1(C)COC(c2cccn2Cc2ccccc2Cl)=N1
7. Cc1nc(-c2ccccc2)sc1C(=O)/C=C/c1ccccc1
8. O=C(O)c1ccccc1OCc1ccccc1Cl

0.77
-0.907
-0.56
1.74
-6.85
-0.905
-2.15
1.56

Need z-score for each of these compounds.
1. CCOC(=O)C1=C(CC)OC(N)=C(C#N)C1c1ccc(F)cc1F (centres undefined)
2. CC(C)(C)OC(=O)NCCCCCC(=O)N/N=C/c1coc2ccccc2c1=O

1. -3.05
2. -0.131

* * *

- experiment-notes: inhibitors of GR-EGFP nuclear translocation, primary screen, dynein cargo transport inhibitor project, imaging, high-content, 3617.4 mouse cells (AID 1381)
- assay-context: measured here: nuclear GR-EGFP intensity, at 20 µM, stronger effect = lower value, stimulated with dexamethasone, 1 µM
Hit rate of the full screen: of about 220,000 compounds, about 1,000 (0.45%) were called active. Shown is part of a subset that was picked to be rich in actives.
Would you mind telling me the reported z-score of each entry?
One number for each entry.

Quick one: z-score of `Brc1ccc2c(c1)[C@H]1OCC[C@H]1[C@@H](c1cccs1)N2` ?
1.53

Need z-score, item CCn1c(SCC(=O)Nc2nc(C)cs2)nnc1C(C)NC(=O)c1ccccc1 (configuration not stated)
-0.608

Data request, read-out z-score, for `Cc1cc(-c2n[nH]c(=S)n2/N=C/C(Br)=C/c2ccccc2)n[nH]1`
-2.57

Consider the molecule `O=[N+]([O-])c1cc(S(=O)(=O)CCCN2CCOCC2)ccc1F` and give its measured z-score.
-2.3

Form field: reported z-score of `O=C(Nc1ccc(N2CCOCC2)cc1)c1ccc2c(c1)OCO2`
0.727

Dear colleague, I am looking for the recorded z-score of the following molecule: `COc1ccccc1NS(=O)(=O)N(C)C`
0.17

Query: z-score; subject: `COc1ccc(CCc2nnc(CCC(=O)NCc3cnn(-c4ccccc4C)c3)o2)cc1`
1.43

z-score for `Cc1ccc2nc(Nc3ncc4c(n3)CC(C)(C)CC4=O)nc(C)c2c1` ?
-0.00084

Provide z-score values for the following items, in order.
1. Cc1ccc(OCC(=O)Nc2cccc3c2CCCC3)cc1C
2. C[C@@H](NC(=O)OC(C)(C)C)c1nnc(S(=O)(=O)Cc2ccccc2)o1
3. CC1C/C(=N/NC(=O)c2cccs2)CC(C)(C)C1 (configuration not stated)
4. Cc1ccc(CNC(=O)Cn2c(=O)c3sccc3n(Cc3cccc([N+](=O)[O-])c3)c2=O)cc1
5. CCOC(=O)CN(Cc1ccc(OC)c(OC)c1)S(=O)(=O)c1ccc(OC)cc1
6. COc1ccc(C2/C=C\CN(S(=O)(=O)c3cccs3)CC(=O)N2Cc2ccc(F)cc2)cc1 (configuration not stated)

[-0.445, -2.38, -0.387, -0.435, 0.0349, 0.466]
